# Tested on: NCI-H211 tumor spheroids, viability percent test/control
# EXPERIMENT_SUMMARY: Anticancer human tumor NCI-H211 cell line growth inhibition;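 note: spheroids exposed to agents for seven days before readout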
# RUN_PARAMETERS: second compound 0.003 µM; first compound 0.949 µM; stronger effect = lower value; spheroids with HUVEC and MSC

COMPOUND: O=C(c1cc(Cc2n[nH]c(=O)c3ccccc23)ccc1F)N1CCN(C(=O)C2CC2)CC1 + COc1cc2c(cc1O)CCNC21CSC2c3c(OC(C)=O)c(C)c4c(c3C(COC1=O)N1C(O)C3Cc5cc(C)c(OC)c(O)c5C(C21)N3C)OCO4
ASSAY_SYSTEM: NCI-H211 tumor spheroids, viability percent test/control
U: %
viability, T/C: 0.1
--
COMPOUND: CNCc1ccc(-c2cc(-c3nc(-c4ccc(S(=O)(=O)C(C)C)cc4)cnc3N)on2)cc1 + CC[C@@]1(O)C(=O)OCc2c1cc1n(c2=O)Cc2cc3c(CN(C)C)c(O)ccc3nc2-1
ASSAY_SYSTEM: NCI-H211 tumor spheroids, viability percent test/control
U: %
viability, T/C: 0.05
--
COMPOUND: Cn1ncnc1[C@H]1c2n[nH]c(=O)c3cc(F)cc(c23)N[C@@H]1c1ccc(F)cc1 + CC[C@@]1(O)C(=O)OCc2c1cc1n(c2=O)Cc2cc3c(CN(C)C)c(O)ccc3nc2-1
ASSAY_SYSTEM: NCI-H211 tumor spheroids, viability percent test/control
U: %
viability, T/C: 1.18
